Biological target: T1, Trx-Stau951-1,018 (Drosophila, UniProt P25159 951-1018)
T1 chain: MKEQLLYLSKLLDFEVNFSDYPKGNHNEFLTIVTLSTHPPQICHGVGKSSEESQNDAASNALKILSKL
Assay: ITC; Mira fragments injected into Stau fragments; 25 °C; 50 mM Tris pH 8.0, 100 mM NaCl, 1 mM EDTA
Value Type: pKd
A value of pKd is the negative decimal logarithm of a concentration given in moles per litre.

Param item = Trx-Mira514–595 (domain or fragment) NYQLTLTNTRATVNILMERLKKSDADVEQYRAELESVQLAKGALEQSYLVLQADAEQLRQQLTESQDALNALRSSSQTLQSE ; retrieve measured pKd.
5.97
